Molecular target: UniProt:P52333
Sequence (P52333 whole entry): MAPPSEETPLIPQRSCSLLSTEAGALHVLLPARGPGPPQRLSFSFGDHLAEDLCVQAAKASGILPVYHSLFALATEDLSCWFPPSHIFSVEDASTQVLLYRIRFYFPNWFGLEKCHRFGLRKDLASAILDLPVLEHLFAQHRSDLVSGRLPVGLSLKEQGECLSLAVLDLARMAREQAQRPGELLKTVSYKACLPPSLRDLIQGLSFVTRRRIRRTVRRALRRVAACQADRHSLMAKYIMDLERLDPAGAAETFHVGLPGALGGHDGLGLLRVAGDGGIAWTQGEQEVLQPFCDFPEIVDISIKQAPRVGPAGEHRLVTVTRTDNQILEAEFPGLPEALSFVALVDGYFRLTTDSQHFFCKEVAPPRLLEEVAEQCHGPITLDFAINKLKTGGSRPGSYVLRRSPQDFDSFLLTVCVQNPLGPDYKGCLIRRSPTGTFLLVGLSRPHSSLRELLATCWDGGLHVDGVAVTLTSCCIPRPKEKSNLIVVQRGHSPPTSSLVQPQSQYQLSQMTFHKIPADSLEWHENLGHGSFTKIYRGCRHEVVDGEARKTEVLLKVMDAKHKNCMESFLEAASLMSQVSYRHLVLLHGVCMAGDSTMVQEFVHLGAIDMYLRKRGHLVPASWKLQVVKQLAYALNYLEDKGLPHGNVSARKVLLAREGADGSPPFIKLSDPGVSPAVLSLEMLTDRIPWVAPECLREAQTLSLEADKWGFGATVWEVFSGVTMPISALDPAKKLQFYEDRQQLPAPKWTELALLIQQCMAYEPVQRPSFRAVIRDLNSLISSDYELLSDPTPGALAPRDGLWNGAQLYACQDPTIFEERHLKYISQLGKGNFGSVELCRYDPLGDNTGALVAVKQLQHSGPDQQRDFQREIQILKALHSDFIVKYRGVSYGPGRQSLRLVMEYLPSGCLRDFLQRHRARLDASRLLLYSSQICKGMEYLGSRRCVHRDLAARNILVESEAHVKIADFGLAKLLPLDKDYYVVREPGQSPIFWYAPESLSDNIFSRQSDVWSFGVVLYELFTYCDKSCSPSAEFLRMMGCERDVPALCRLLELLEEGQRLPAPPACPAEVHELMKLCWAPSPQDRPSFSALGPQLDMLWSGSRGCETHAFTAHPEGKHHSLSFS
Experiment: Enzyme assay (Assay Example^a 1), JAK3
Assay type: biochemical
Settings: ATP 100 μM
Quick list: IC50 per entry.

OC1(c2ccc(Cl)c(C(F)(F)F)c2)CCN(C[C@H]2CC[C@H](c3nnn4cnc5[nH]ccc5c34)CC2)CC1
> 1 µM

Quick note, IC50 for "O=C(CC(F)(F)F)N(CC(F)(F)F)C[C@H]1CC[C@H](c2nnn3cnc4[nH]ccc4c23)CC1" landed at 0.17 µM

Input "N#Cc1ccc(CCNC(=O)[C@H]2CC[C@H](c3nnn4cnc5[nH]ccc5c34)CC2)cc1" . Output IC50: > 1 µM

---

Biological target: JAK1 (Homo sapiens (Human), UniProt P23458)
Experiment: Enzyme assay (Assay Example^a 1), JAK1
Assay type: biochemical
Details: ATP 100 μM; Table^a 154
Catalogue of compounds with associated IC50
// return numeric value only (unit: µM, not printed)

For orientation, consider the following solved cases.
N#CC1CCN(C[C@H]2CC[C@H](c3nnn4cnc5[nH]ccc5c34)CC2)CC1
0.025
FCCNC[C@H]1CC[C@H](c2nnn3cnc4[nH]ccc4c23)CC1
0.0028
Fc1ccc(CN[C@H]2CC[C@H](c3nnn4cnc5[nH]ccc5c34)CC2)cc1 [195b]
0.007
FC(F)(F)c1ccc(CCN2CCC(c3nnn4cnc5[nH]ccc5c34)CC2)cc1
0.082
Cc1ccc(CNC[C@H]2CC[C@H](c3nnn4cnc5[nH]ccc5c34)CC2)o1
0.0054
Clc1cnccc1CN1CCC(c2nnn3cnc4[nH]ccc4c23)CC1
0.01
Fc1ccc(CN[C@H]2CC[C@@H](c3nnn4cnc5[nH]ccc5c34)CC2)cc1 [195a]
0.03
C[C@@H](O)CNC[C@H]1CC[C@H](c2nnn3cnc4[nH]ccc4c23)CC1
0.0081
Clc1ccc(CN[C@H]2CC[C@@H](c3nnn4cnc5[nH]ccc5c34)CC2)cc1 [197a]
0.016
O=C(NCCc1ccc(F)cc1)[C@H]1CC[C@H](c2nnn3cnc4[nH]ccc4c23)CC1
0.0028

The compound identified as "CN(C[C@H]1CC[C@H](c2nnn3cnc4[nH]ccc4c23)CC1)c1ccc(C#N)cc1" registered its IC50 at 0.0039

Value of measured IC50 for the entry c1cc2c(ncn3nnc([C@H]4CC[C@H](NN5CCOCC5)CC4)c23)[nH]1 [139b] : 0.021

Item: OC(CN[C@H]1CC[C@@H](c2nnn3cnc4[nH]ccc4c23)CC1)(c1ccccc1)C(F)(F)F (mixture of isomers) [196a] | IC50: 0.06

IC50 recorded for this compound, c1ccc(CCCN[C@H]2CC[C@@H](c3nnn4cnc5[nH]ccc5c34)CC2)cc1 [136a] , is 0.14

Notebook: "CC(C)(C)OC(=O)NCCN1CCC(c2nnn3cnc4[nH]ccc4c23)CC1" , IC50 read as 0.1
